The reported measurements were obtained from ChEMBL document CHEMBL4808177.

Assay Method Text: Modulation of SMN2 splicing in myoblast cell line derived from the SMNdelta7 mouse model assessed as increase in SMN level measured as fold activation treated for 24 hrs by ELISA
Assay type: functional, Primary myoblast
Measured Quantity: pEC50
# pEC50 = -log10(concentration in molar units)

Looking up `CN(c1nnc(-c2ccc(-c3cnn(C)c3)cc2O)s1)C1CC(C)(C)NC(C)(C)C1` , I found its pEC50 recorded as 7.49

Looking up `CN(c1nnc(-c2ccc(-c3cnn(C)c3)cn2)s1)C1CC(C)(C)NC(C)(C)C1` , I found its pEC50 recorded as 6.17

Looking up `CN(c1nnc(-c2ccc(-c3ccn(C)c(=O)c3)cc2O)s1)C1CC(C)(C)NC(C)(C)C1` , I found its pEC50 recorded as 7.21

Looking up `CN(c1nnc(-c2ccc(-c3cn[nH]c3)cc2O)s1)C1CC(C)(C)NC(C)(C)C1` , I found its pEC50 recorded as 6.40

Looking up `CN(c1nnc(-c2cc3cc(C#N)ccc3s2)s1)C1CC(C)(C)NC(C)(C)C1` , I found its pEC50 recorded as 6.27

Looking up `CN(c1nnc(-c2ccc(-c3ccn(C)c(=O)c3)cc2OC(F)(F)F)s1)C1CC(C)(C)NC(C)(C)C1` , I found its pEC50 recorded as 6.05

Looking up `CN(c1nnc(-c2cc(-n3cccn3)ccc2O)s1)C1CC(C)(C)NC(C)(C)C1` , I found its pEC50 recorded as 6.00

Looking up `CN(c1nnc(-c2c(O)cc(-c3cn[nH]c3)cc2F)s1)C1CC(C)(C)NC(C)(C)C1` , I found its pEC50 recorded as 8.22
